Provide the recorded fluorescence slope for the entries that follow.
- MEASUREMENT TARGET: Voltage-gated potassium channel subunit beta-2 (Rattus norvegicus) (UniProt P62483)
- Sequence (P62483 whole entry, looked up): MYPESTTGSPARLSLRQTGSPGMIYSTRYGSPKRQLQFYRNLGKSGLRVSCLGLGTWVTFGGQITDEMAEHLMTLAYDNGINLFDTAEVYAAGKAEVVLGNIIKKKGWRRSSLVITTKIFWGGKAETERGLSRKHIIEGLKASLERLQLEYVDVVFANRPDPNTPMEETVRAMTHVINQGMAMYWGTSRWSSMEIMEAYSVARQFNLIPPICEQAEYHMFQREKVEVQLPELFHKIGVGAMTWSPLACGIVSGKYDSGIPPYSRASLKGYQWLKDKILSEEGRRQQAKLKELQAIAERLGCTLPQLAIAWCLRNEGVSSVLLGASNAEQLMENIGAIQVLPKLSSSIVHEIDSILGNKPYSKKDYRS
- TEST NAME: KvBeta enzyme negative modulators, primary screen, biochemical, NADPH fluorescence (AID 622);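 note: slope of raw intensity against log time taken from 70 to 1610 s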
- CONDITION LABEL: recombinant KvBeta, 4-cyanobenzaldehyde reduction, at 10 µM, stronger effect = higher value
Numbers only.

Would you please look over these solved cases?
MOLECULE	MEASUREMENT TARGET	fluorescence slope
CCC(NC(=O)Nn1cnnc1)(C(F)(F)F)C(F)(F)F	Voltage-gated potassium channel subunit beta-2 (Rattus norvegicus) (UniProt P62483)	-0.49
CCN=C1SC(CC(=O)Nc2ccccc2)C(=O)N1CC (stereo not given)	Voltage-gated potassium channel subunit beta-2 (Rattus norvegicus) (UniProt P62483)	-0.341
Cc1ccc(CNC(=O)c2cc3c(=O)n4ccccc4nc3n(Cc3ccco3)c2=N)cc1	Voltage-gated potassium channel subunit beta-2 (Rattus norvegicus) (UniProt P62483)	-0.456
C=CCn1c(SCC(=O)c2ccc(NS(=O)(=O)c3ccccc3)cc2)nnc1-c1cccs1	Voltage-gated potassium channel subunit beta-2 (Rattus norvegicus) (UniProt P62483)	-0.473
CCSc1nnc2c(n1)OC=Nc1ccc(Br)cc1-2	Voltage-gated potassium channel subunit beta-2 (Rattus norvegicus) (UniProt P62483)	-0.38
Cn1c(=O)[nH]c2cc(Cl)cnc21	Voltage-gated potassium channel subunit beta-2 (Rattus norvegicus) (UniProt P62483)	-0.492
Cc1cc(=O)oc(C)c1C(=O)NCC(C)C	Voltage-gated potassium channel subunit beta-2 (Rattus norvegicus) (UniProt P62483)	-0.432
CC(NC(=O)NCc1cccnc1)(C(F)(F)F)C(F)(F)F	Voltage-gated potassium channel subunit beta-2 (Rattus norvegicus) (UniProt P62483)	-0.446
CCCc1cc(NCCCCO)n2c(nc3ccccc32)c1C#N	Voltage-gated potassium channel subunit beta-2 (Rattus norvegicus) (UniProt P62483)	-0.238
CC1=C(C(=O)Nc2ccccc2)C(c2ccccn2)n2nc(CCCO)nc2N1 (stereo not given)	Voltage-gated potassium channel subunit beta-2 (Rattus norvegicus) (UniProt P62483)	-0.532

Batch request: fluorescence slope for each of the following molecules.
1. COC(=O)c1ccc(C2/C(=C(\O)c3ccc(OC)c(C)c3)C(=O)C(=O)N2c2cc(C)on2)cc1 (stereo not given)
2. COc1cc(S(=O)(=O)N(C)C)ccc1F
3. CCCCc1c(O)nc(N2CCN(Cc3ccccc3)CC2)[nH]c1=O
4. O=C(C1CCN(c2nnc(-n3cccc3)s2)CC1)N1CCOCC1
5. COCCn1c(SCC(=O)N2CCc3ccccc32)nc2c(c1=O)SC(C)C2 (stereo not given)
6. CCC1SC2=NC(C)=C(C(=O)OCCOC)C(c3ccc(C(=O)OC)cc3)N2C1=O (stereo not given)
7. Cc1c(=O)n(OCc2c(F)cccc2F)c2ccccc2[n+]1[O-]

# output
-0.444
-0.413
-0.343
-0.418
-0.45
-0.411
-0.406

---

- TEST NAME: inhibitors of Sendai virus-induced IRF3 signaling, primary screen, TLR/RLR signaling modifier project, cell-based, Sendai virus stimulus, luciferase, 10K MLSCN set (AID 602276);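 note: firefly luciferase from ISG56 promoter only with Renilla not read in this screen; 0% = Sendai virus plus DMSO and 100% = medium plus DMSO without virus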
- CONDITION LABEL: HEK293 RL24 IRF3 luciferase reporter, at 10 µM, stronger effect = higher value
Hi there, I'd appreciate the recorded inhibition for every entry that follows.
Answers are plain numbers, in %.

Illustrative cases are given below, each with its answer.
MOLECULE	UNITS LABEL	inhibition
CCOC(=O)CN1CC23C=CC(O2)C(C(=O)Nc2ccc(OCC)cc2)C3C1=O (centres undefined)	%	7.04
CCOC(=O)c1oc2ccccc2c1CSc1nnnn1-c1ccc(C)cc1	%	-16.8
CC(=O)c1ccccc1Oc1nc(CN2CCOCC2)nc2scc(-c3cccs3)c12	%	7.86
COc1ccc(NC(=O)CSc2nnc(-c3ccccc3C)n2C)cc1	%	5.44
O=C(CSc1nnc(CNC(=O)c2cccs2)o1)NCCc1ccccc1	%	18.5

Quick batch: inhibition for everything below.
1. CC1NC(=O)NC1CCCCCC(=O)NCCc1ccccc1 (centres undefined)
2. CC(C)(C)OC(=O)NCCc1nnc(SCC(=O)c2ccc(Cl)cc2)o1

# output
5.75
5.48

List inhibition for every entry below, keeping the order given.
1. COc1cccc(OC)c1OCCNCCO
2. CCN(C(=O)c1cn(C)c(=O)c2cc(OC)c(OC)cc12)c1ccccc1C
3. O=C(CSc1nc2ccsc2c(=O)n1NC(=O)c1ccccc1)Nc1nccs1
4. COCCCN(Cc1ccccn1)S(=O)(=O)Cc1ccccc1
5. COc1ccc(CNc2nc(NCc3ccc(OC)cc3)n(S(C)(=O)=O)n2)cc1
6. c1ccc(CCn2nnnc2C(c2cccs2)N2CCOCC2)cc1 (centres undefined)
7. CCn1c(SCC(=O)NC)nnc1C(C)C

# output
[13.1, 0.738, -7.17, 3.22, 2.7, 4.38, 12.7]

Hey, quick one: what's inhibition for each of these?
1. CCCn1c(SCC(=O)Nc2ccccc2C(=O)OCC)nc2c1c(=O)n(C)c(=O)n2C
2. CCOC(=O)C1(CC)NC(c2cccc(F)c2)C2C(=O)N(CC)C(=O)C21 (centres undefined)
3. C=CCOc1ccc(/C=N/n2cncn2)cc1OC
4. COc1ccc(-n2c(=O)c3c4c(sc3n3c(C)nnc23)CCCC4)cc1
5. Cc1cc(=O)oc2c1c(C)nn2-c1ccc(C(=O)OC(C)C)cc1
6. CC(=O)NCCOc1cccc(OCCNC(C)=O)c1
7. Cn1c(=O)c2c(nc(CN3CCOCC3)n2CC(O)CO)n(C)c1=O (centres undefined)

# output
1: 4.88; 2: 12.4; 3: -10.2; 4: 4.81; 5: 8; 6: -7.84; 7: 14.2
